System: Str. mitis
Experiment: Test tube serial dilution test (minimal inhibitory concentration)
Assay type: cell-based
Settings: Streptococcus mitis; Table III, no quantity or unit printed in the table; minimal inhibitory concentration in ppm; read-out: antimicrobial results, S.mitis (Table III)
The entries below are paired with their reported MIC.
property_name: MIC (µg/mL)

1) CCCCCCCCCCCCCC[N+](C)(C)CCCNC(=O)CCCCCCCCCCC.[Cl-]    12.5
2) CCCCCCCCCCCCCC[N+](C)(C)CCCNC(=O)CCCCCCCC.[Cl-]    0.78
3) CCCCCCCCCCCCCC[N+](C)(C)CCCNC(=O)CCCCCCC.[Cl-]    1.56
4) CCCCCCCCCCCC[N+](C)(C)CCCNC(=O)C(CC)CCCC (stereo not shown)    3.12
